Test system: COLO 205 colon
Test: NCI-60 one-dose screen, 48 h (100 = growth as untreated, 0 = no growth, -100 = all killed)
Details: 10 µM unless noted
About 83,000 compounds went through this panel and 20% of them were active in at least one assay; those are over-represented in the sample as a whole.
Could you please mark fulfilled for values of growth below 30% and not fulfilled for values at or above it?

INSERT INTO measurements (compound, assigned_label) VALUES
  ('C=CCSc1nnc(-c2c(C)nc3sccn23)o1', 'not fulfilled'),
  ('CC(C)(C)C(=O)C1CC(C#N)=C2C=Cc3c(ccc4ccccc34)N21 (stereo not drawn)', 'not fulfilled'),
  ('CN1C(=O)/C(=C\C(=O)c2cc3ccccc3oc2=O)c2ccccc21', 'not fulfilled'),
  ('O=C(c1ccc(Cl)cc1)C1[C@H](c2ccccc2Cl)[C@@H](c2ccccc2)NC12C(=O)Nc1ccccc12 (stereo partly drawn)', 'fulfilled'),
  ('COc1ccc(-c2cc(C(=O)N=Nc3c(O)[nH]c4ccc(Cl)cc34)c3ccccc3n2)cc1', 'fulfilled'),
  ('N#Cc1ccc(C(=O)NNC(=O)CSc2nc3sc4c(c3c(=O)n2-c2ccc(Cl)cc2)CCCC4)cc1', 'not fulfilled'),
  ('O=C(Nc1ccc(Br)cc1)Nc1ccc(-c2ccc3c(c2)NC(=O)/C3=C\c2ccc[nH]2)cc1', 'not fulfilled'),
  ('C[C@H]1[C@@H](CC(=O)N[C@@H](Cc2coc3ccccc23)B(O)O)O[C@@H]2OC3(C)CC[C@H]4[C@H](C)CC[C@@H]1[C@@]24O3', 'fulfilled'),
  ('COc1ccc(/C=C/c2nc3ccccc3n3c(-c4cccc([N+](=O)[O-])c4)nnc23)cc1', 'fulfilled'),
  ('O=C(COc1ccc(/C=C2/C(=O)Nc3ccc(Cl)cc32)cc1)Nc1ccc(Br)cc1', 'fulfilled'),
  ('CC1=NN(C2=NC(=O)C(CC(=O)Nc3ccccc3C(F)(F)F)S2)C(c2ccc(N(C)C)cc2)C1 (stereo not drawn)', 'not fulfilled'),
  ('O=C(N/N=C/c1c[nH]c2ccccc12)Nc1ccccc1Cl', 'fulfilled'),
  ('O=C(CSc1nc2sc3c(c2c(=O)n1-c1ccc(Cl)cc1)CCCC3)NNC(=O)c1ccc(F)cc1', 'not fulfilled'),
  ('COC(=O)c1cccc(Oc2ccc(NC(=O)Nc3cc(C(F)(F)F)ccc3F)cc2)c1', 'not fulfilled'),
  ('CC1CCc2c(sc3nc(SCC(=O)c4cccc(Br)c4)n(-c4ccccc4)c(=O)c23)C1 (stereo not drawn)', 'fulfilled'),
  ('Cc1ccc2nc(NC(=O)Nc3cccc(Cl)c3)sc2c1', 'not fulfilled'),
  ('CC1=C(C(=O)OCc2ccccc2)C(c2ccc(N(C)C)cc2)n2c(nc3ccccc32)N1 (stereo not drawn)', 'not fulfilled'),
  ('CC(=O)Nc1ccc(S(=O)(=O)Nc2ccc(-c3ccc4c(c3)NC(=O)/C4=C\c3ccc[nH]3)cc2)cc1', 'not fulfilled'),
  ('Cn1cc(-c2cc(N)n3nc(-c4c[nH]c5ccc(Cl)cc45)cc3n2)c2cc(Br)cnc21', 'fulfilled'),
  ('CN(C)c1ccc(/C=C/c2n(Cc3ccc4ccccc4c3)c3ccccc3[n+]2Cc2ccc3ccccc3c2)cc1', 'fulfilled'),
  ('O=C(N/N=C/c1ccc(Cl)cc1)c1ccc(OCc2nc3ccc(Cl)cc3[nH]2)cc1', 'fulfilled'),
  ('O=C(Nc1nc2ccc([N+](=O)[O-])cc2s1)Nc1ccccc1F', 'fulfilled'),
  ('COc1ccc(N=Nc2c(N)nn3c(-c4ccc(F)cc4)ccnc23)cc1', 'not fulfilled'),
  ('CCc1ccccc1NC(=O)N/C(N)=N/c1nc2ccccc2s1', 'fulfilled'),
  ('Cc1ccc(Cl)cc1NC(=O)Nc1nc2ccc([N+](=O)[O-])cc2s1', 'fulfilled'),
  ('COc1ccc2[nH]cc(-c3cc4nc(-c5cn(C)c6ncccc56)cc(N)n4n3)c2c1', 'fulfilled'),
  ('COc1ccc(NC(=O)CSc2nnc(-c3ccc(-c4nc5ccccc5[nH]4)cc3)o2)cc1', 'not fulfilled'),
  ('O=C(Cc1c(-c2cccc([N+](=O)[O-])c2)n(-c2ncnc3c2c(-c2ccccc2)c(-c2ccccc2)n3Cc2ccccc2)[nH]c1=O)c1ccc(Cl)c(Cl)c1', 'not fulfilled'),
  ('OCCn1cc(-c2nc3ccc4[nH]ncc4c3c3c2CCCC3)cn1', 'not fulfilled'),
  ('N#C/C(=C/c1ccc(Cl)cc1)c1nnc(NC(=O)c2ccc(-n3c(=O)[nH]c4ccccc4c3=O)cc2)s1', 'not fulfilled'),
  ('COc1ccc(NC(=O)N/N=C/c2c[nH]c3ccccc23)cc1', 'fulfilled'),
  ('O=C(CSc1nc2ccccc2c(=O)[nH]1)Nc1ccccc1C(=O)O', 'not fulfilled'),
  ('O=C1NC(=S)/C(=C/c2cn(-c3ccccc3)nc2-c2ccccc2)S1', 'not fulfilled'),
  ('C/C(=N\Nc1ccc(S(N)(=O)=O)cc1)c1cnn(-c2cc(=O)[nH]c3ccc(Br)cc23)c1C', 'not fulfilled'),
  ('COc1ccc(NC(=O)Cn2c(/C=C/c3cccc(Br)c3)nc3ccccc3c2=O)cc1', 'not fulfilled'),
  ('COc1cc(C2CC(c3ccc(C(F)(F)F)cc3)=Nc3c(N)nc(N)nc3N2)ccc1Oc1nc(Nc2ccc(F)cc2)nc(N(C)C)n1 (stereo not drawn)', 'not fulfilled'),
  ('Cn1cc(-c2cc(N)n3nc(-c4c[nH]c5ccccc45)cc3n2)c2cc(Cl)ccc21', 'fulfilled');

Each recorded value in this set is attributed to PubChem BioAssay (NCI).
